Ref: ChEMBL document CHEMBL1221229

- Procedure Text: Cytotoxicity against african green monkey Vero cells after 3 days by MTT assay
- Type: cell-based
- Measurement Parameters: chlorocebus sabaeus, read-out: MNCC
# key: entry, value: MNTC at 72 h
Lab book: enter the figure in µM, no units written.

In [3]: df
Out[3]:
                              sample_smiles  result_value
0  O=c1c(O)c(-c2cc(O)c(O)c(O)c2)oc2cc(O)cc(O)c12           310

MNTC at 72 h for `O=c1cc(-c2ccc(O)c(O)c2)oc2cc(O)cc(O)c12` is 700

MNTC at 72 h for `O=c1c(O[C@@H]2O[C@H](CO)[C@@H](O)[C@H](O)[C@H]2O)c(-c2ccc(O)c(O)c2)oc2cc(O)cc(O)c12` is 430
